These data points were gathered from patent US20250276077A1.

The following binders are shown together with reported ADCC Delta, A549 cells values.
# target-or-test-system: Human EphA2 (ephrin receptor A2) on cells (human, UniProt P29317 25-976)
# Sequence (P29317 25-976): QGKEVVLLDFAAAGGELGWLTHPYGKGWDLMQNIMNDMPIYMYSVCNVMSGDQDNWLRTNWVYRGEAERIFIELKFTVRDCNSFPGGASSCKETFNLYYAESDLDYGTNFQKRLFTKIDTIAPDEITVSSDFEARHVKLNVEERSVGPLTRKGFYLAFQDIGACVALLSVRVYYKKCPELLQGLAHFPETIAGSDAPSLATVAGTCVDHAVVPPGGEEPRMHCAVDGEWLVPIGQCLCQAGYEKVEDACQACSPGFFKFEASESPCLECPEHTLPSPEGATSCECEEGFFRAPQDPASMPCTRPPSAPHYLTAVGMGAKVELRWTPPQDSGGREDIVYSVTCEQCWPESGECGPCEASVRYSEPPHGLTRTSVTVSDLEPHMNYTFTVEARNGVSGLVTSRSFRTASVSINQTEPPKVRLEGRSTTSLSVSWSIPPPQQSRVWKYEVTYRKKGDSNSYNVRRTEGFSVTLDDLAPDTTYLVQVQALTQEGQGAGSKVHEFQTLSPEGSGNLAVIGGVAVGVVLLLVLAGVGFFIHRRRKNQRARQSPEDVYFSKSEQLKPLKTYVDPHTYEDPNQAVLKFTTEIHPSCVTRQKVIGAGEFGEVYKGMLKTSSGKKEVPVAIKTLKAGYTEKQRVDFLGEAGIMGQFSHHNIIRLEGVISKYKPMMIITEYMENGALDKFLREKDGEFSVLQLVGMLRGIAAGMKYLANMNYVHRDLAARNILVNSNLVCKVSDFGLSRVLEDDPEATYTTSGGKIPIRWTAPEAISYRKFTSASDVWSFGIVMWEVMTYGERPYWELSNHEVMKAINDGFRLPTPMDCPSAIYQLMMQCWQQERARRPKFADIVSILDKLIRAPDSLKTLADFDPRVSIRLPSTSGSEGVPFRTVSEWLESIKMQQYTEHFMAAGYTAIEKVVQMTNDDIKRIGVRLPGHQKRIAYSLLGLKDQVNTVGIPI
# procedure-details: cell-based or functional assay
Write the number on its own, no unit after it.

Please review the entries below; each comes with its answer.
// query Fill blank: measured ADCC Delta, A549 cells of the binder AB-009812 (antibody, mouse IgG2a, V domains shown) VH: QVQLQQWGAGLLKPSETLSLTCAVYGGSFSDYYWSWIRQPPGKGLEWIGEVNHSGSINYNNYNPSLKSRVTISVDPSKNQFSLKLTSVTAADTAVYYCAKPLRPHCTNGVCYSGDAFDIWGQGTMVTVAS VL: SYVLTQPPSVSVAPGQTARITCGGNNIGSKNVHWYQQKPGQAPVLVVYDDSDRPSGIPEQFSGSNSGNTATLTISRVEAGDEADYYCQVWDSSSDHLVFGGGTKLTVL is ____.
// result 41.1

// query Fill blank: measured ADCC Delta, A549 cells of the binder AB-009817 (antibody, mouse IgG2a, V domains shown) VH: QVQLQQWGAGLLKPSETLSLTCAVYGGSFSDYYWSWIRQPPGKGLEWIGEVNHRGSINYNNYNPSLKSRVTISVDPSKNQFSLKLTSVTAADTAVYYCAKPLRPHCTNAVCYSGDAFDIWGQGTMVTVAS VL: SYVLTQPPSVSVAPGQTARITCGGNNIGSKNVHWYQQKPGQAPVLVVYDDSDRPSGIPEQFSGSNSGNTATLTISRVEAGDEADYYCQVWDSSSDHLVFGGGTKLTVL is ____.
// result 0

// query Fill blank: measured ADCC Delta, A549 cells of the binder AB-009815 (antibody, mouse IgG2a, V domains shown) VH: QVQLQQWGAGLLKPSETLSLTCAVYGGSFSDYYWSWIRQPPGKGLEWIGEVNHRGSINYNNYNPSLKSRVTISVDTSKNQFSLKLTSVTAADTAVYYCAKPLRPHCTNGVCYSGDAFDIWGQGTMVTVAS VL: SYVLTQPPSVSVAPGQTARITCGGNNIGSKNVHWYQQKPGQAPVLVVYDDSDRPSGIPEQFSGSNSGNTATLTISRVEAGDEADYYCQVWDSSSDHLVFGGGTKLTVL is ____.
// result 59.8

// query Fill blank: measured ADCC Delta, A549 cells of the binder AB-009816 (antibody, mouse IgG2a, V domains shown) VH: QVQLQQWGAGLLKPSETLSLTCAVYGGSFSDYYWSWIRQPPGKGLEWIGEVNHRGSINYNNYNPSLKSRVTISVDASKNQFSLKLTSVTAADTAVYYCAKPLRPHCTNGVCYSGDAFDIWGQGTMVTVAS VL: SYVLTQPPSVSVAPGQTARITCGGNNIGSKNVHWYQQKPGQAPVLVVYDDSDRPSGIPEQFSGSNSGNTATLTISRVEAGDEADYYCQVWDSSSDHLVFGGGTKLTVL is ____.
// result 58

// query Fill blank: measured ADCC Delta, A549 cells of the binder AB-009813 (antibody, mouse IgG2a, V domains shown) VH: QVQLQQWGAGLLKPSETLSLTCAVYGGSFSDYYWSWIRQPPGKGLEWIGEVNHAGSINYNNYNPSLKSRVTISVDPSKNQFSLKLTSVTAADTAVYYCAKPLRPHCTNGVCYSGDAFDIWGQGTMVTVAS VL: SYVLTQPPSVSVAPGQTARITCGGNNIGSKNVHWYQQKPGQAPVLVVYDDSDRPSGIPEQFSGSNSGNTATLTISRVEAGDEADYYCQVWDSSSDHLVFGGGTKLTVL is ____.
// result 39.9

Okay, next one:
// query Fill blank: measured ADCC Delta, A549 cells of the binder AB-009814 (antibody, mouse IgG2a, V domains shown) VH: QVQLQQWGAGLLKPSETLSLTCAVYGGSFSDYYWSWIRQPPGKGLEWIGEVNHRGSINYNPSLKSRVTISVDPSKNQFSLKLTSVTAADTAVYYCAKPLRPHCTNGVCYSGDAFDIWGQGTMVTVAS VL: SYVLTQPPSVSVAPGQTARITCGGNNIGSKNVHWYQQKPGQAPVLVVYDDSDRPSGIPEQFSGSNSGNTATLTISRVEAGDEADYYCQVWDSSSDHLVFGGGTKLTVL is ____.
// result 36
